// reported Binding of mAb-2 to SRA Pre-complexed with mAb-1 for each item listed
Target: T1, SRA.mmh
T1 construct: also called SRA.mmh (CHO)
T1 antigen: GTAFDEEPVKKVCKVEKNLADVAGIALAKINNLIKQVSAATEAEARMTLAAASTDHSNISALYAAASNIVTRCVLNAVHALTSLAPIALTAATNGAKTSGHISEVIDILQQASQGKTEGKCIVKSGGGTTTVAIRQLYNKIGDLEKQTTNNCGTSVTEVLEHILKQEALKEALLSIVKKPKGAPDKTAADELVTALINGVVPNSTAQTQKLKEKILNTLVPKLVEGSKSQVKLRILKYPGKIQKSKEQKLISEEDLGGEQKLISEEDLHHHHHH
Experiment: Octet, mAb-2 at 50 ug/mL on captured SRA.mmh after negative control α-PRLR H1H6800P as mAb-1 (row 32 (-))
Note: the reply should be a number with no unit written.

H2aM10200N (antibody, V domains shown, Hybridoma-derived chimeric antibody, human variable domains and mouse constant domains (mouse Fc, prefix H2aM); also called H2M10200N) VH: QVQLVQSGAEVKKPGSSVKVSCKASGGTFSSYAISWVRQAPGQGLEWMGGIIPFFGTATYAQKFQGRVTITTDESTRTVYMELSSLRYEDTAVYYCARWYSGYGGDFDYWGQGTLVTVSS VL: AIQMTQSPSSLSASVGDRVTITCRASQGIRNDLGWFQQKPGKAPKLLIYAASSLQSGVPSRFSGSGSGTDFTLSISSLQPEDFATYYCLQDYSYPRTFGQGTKVEIK = 1.28
H1H10027P (antibody, V domains shown, Fully human antibody with human IgG1 Fc (prefix H1H)) VH: EVQLVESGGALVQPGRSLTLSCAASGFTFDDYTMHWVRQTPGKGLEWVSGILWNSDNLVYADSVKGRFTISRDNAKNSLYLQMNSLRVEDTALYYCTKEIDYLTLGGNAFDVWGQGTMVTVSS VL: DIQMTQSPSTLSASVGDRITITCRASQNINYWLAWYQQKPGKAPKLLIYKASSLAGGVPSRFSGSGSGTDFTLTINSLQPDDFATYYCQKYNTYSLNFGGGTKVEIK = 1.55

// moving on: another record for Binding of mAb-2 to SRA Pre-complexed with mAb-1
Challenge: Look up Binding of mAb-2 to SRA Pre-complexed with mAb-1: H1H10041P (antibody, V domains shown, Fully human antibody with human IgG1 Fc (prefix H1H)) VH: QVQLVQSGAEVRKPGSSMKVSCATSGGNFRSYTINWVRQAPGQGLEWMGGVFPAVGTRIYAQKFQGRVTISTDESTTIAYMELNSLVPEDTAVYYCARSFNSPFDFWDQGTLVTVSS VL: AIQMTQSPSSLSASVGDRVTLTCRASQDIRNDLHWFQQTPGKAPRLLIYSASNLQSGVPSRFSGTGSGTDFTLTFSSLQPEDFATYYCLQDYSYPYTFGQGTKLEIK
Response given: 1.57
